Numbers sourced from ChEMBL document CHEMBL5143528.

Tested on: Candida albicans
Format: functional, 0304103
assay_conditions: time 48 hrs
Description: Synergistic antifungal activity against azole-resistant Candida albicans 0304103 assessed as fractional inhibitory concentration incubated for 48 hrs by CLSI based checkerboard microdilution assay
property_label: log10 of FIC (log10 of the value in µg/mL)
Values reflect log10 of reported FIC (µg/mL).

smi | property_label | measured
CC(C)c1cc(-c2n[nH]c(=O)n2-c2cccc(C(=O)NCCCC(=O)NO)c2)c(O)cc1O | log10 of FIC | 1.81
CC(C)c1cc(-c2n[nH]c(=O)n2-c2cccc(C(=O)NCCCCCC(=O)NO)c2)c(O)cc1O | log10 of FIC | 1.20
CC(C)c1cc(-c2n[nH]c(=O)n2-c2ccc3c(ccn3C)c2)c(O)cc1O | log10 of FIC | -0.30
CC(C)c1cc(-c2n[nH]c(=O)n2-c2ccc(NC(=O)CCCCC(=O)NO)cc2)c(O)cc1O | log10 of FIC | 1.20
CC(C)c1cc(-c2n[nH]c(=O)n2-c2cccc(NC(=O)CCCCC(=O)NO)c2)c(O)cc1O | log10 of FIC | 1.81

What is its log10 of FIC for Candida albicans? Entry: CC(C)c1cc(-c2n[nH]c(=O)n2-c2ccc(C(=O)NCCCCC(=O)NO)cc2)c(O)cc1O
0.60

What is its log10 of FIC for Candida albicans? Entry: CC(C)c1cc(-c2n[nH]c(=O)n2-c2ccc(NC(=O)CCCCCC(=O)NO)cc2)c(O)cc1O
0.90

What is its log10 of FIC for Candida albicans? Entry: CNC(=O)CCCCCCCNC(=O)c1cccc(-n2c(-c3cc(C(C)C)c(O)cc3O)n[nH]c2=O)c1
0.90
